# assay method text: Pharmacokinetic profiles
# Type: in vivo
# condition info: SD, rat, serum, iv, 1 mg/kg, SD rats, IV 1 mg/kg, 6 h; read-out: Con. Mean
readout kind: concentration at 6 h

Task: Value lookup for concentration at 6 h; key = CCN1CCN(C(=O)c2ccc(Nc3ncc(F)c(-c4ccc5nc(N(C)C)sc5c4)n3)nc2)CC1 [YK-2-69]
Result: 62 ng/mL

----------
# assay method text: Pharmacokinetic profiles
# Type: in vivo
# condition info: rat, serum; SD rats, IV 1 mg/kg
readout kind: Cmax (ng/mL)
Write it as a number; the unit ng/mL goes unstated.

Task: Give the measured Cmax of CCN1CCN(C(=O)c2ccc(Nc3ncc(F)c(-c4ccc5nc(N(C)C)sc5c4)n3)nc2)CC1 .
Result: 974

FYI, the data here is from paper PMC9133015.
